measurement.target: human PR-B (Homo sapiens, UniProt P06401)
Construct: expressed in transfected cells; host or cells: CV-1 cells (African green monkey kidney fibroblasts), transient transfection
Sequence (P06401 whole entry): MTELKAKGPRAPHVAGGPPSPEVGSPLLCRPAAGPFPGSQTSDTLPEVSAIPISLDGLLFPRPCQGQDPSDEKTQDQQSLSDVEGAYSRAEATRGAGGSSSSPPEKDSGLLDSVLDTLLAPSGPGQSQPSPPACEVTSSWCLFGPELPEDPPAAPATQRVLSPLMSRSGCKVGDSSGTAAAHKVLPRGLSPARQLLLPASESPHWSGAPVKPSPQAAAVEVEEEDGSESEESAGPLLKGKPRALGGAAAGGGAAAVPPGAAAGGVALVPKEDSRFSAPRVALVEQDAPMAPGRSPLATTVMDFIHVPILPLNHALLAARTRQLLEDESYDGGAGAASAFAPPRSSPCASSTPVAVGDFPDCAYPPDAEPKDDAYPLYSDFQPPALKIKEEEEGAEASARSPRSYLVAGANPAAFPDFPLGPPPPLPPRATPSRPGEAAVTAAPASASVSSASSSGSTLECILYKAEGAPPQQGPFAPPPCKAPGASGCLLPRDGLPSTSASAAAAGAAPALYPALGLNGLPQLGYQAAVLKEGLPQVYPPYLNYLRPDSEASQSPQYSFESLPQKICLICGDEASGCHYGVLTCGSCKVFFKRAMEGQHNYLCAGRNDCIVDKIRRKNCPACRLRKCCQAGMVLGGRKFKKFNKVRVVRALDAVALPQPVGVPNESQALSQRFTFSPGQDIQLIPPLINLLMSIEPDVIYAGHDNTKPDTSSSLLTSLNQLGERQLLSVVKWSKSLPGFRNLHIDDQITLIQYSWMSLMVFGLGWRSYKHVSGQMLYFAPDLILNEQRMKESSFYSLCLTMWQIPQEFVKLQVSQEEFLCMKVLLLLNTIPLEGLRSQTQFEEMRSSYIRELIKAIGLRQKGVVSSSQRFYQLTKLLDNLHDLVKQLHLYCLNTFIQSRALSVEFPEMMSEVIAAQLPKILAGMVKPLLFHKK
test.protocol: Co-transfection assay, PR agonist activity;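 also: CV-1 cells (African green monkey kidney) co-transfected with receptor plasmid and hormone-responsive firefly luciferase reporter, agonism read as compound-dependent rise in luciferase signal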
Type: cell-based
assay.setup: CV-1, read-out: PR Agonist CV-1 Cells Efficacy (%)
property.label: Emax

stdin: Give Emax for CC1=CC(C)(C)Nc2ccc(-c3cccc(F)c3F)cc21
stdout: < 20%

stdin: Give Emax for CC1=CC(C)(C)Nc2ccc3c(c21)COc1c(Cl)cccc1-3
stdout: < 20%

stdin: Give Emax for CC1=CC(C)(C)Nc2c(F)cc(-c3cccc([N+](=O)[O-])c3)cc21
stdout: < 20%
